percent difference in area under dose-response curve values, listed per item
system: SUM149; experiment: percent difference in area under dose-response curve of relative cell number, RPMI vs HPLM; higher = drug relatively more effective in HPLM than RPMI (negative = less effective in HPLM); conditions: treatment time: 72 h; dose range: 10-point, 1 nM to 20 µM; media compared: RPMI vs HPLM
Provide the reading as a plain figure in %.

[
  {
    "Smiles": "FC(F)c1nc2ccccc2n1-c1nc(N2CCOCC2)nc(N2CCOCC2)n1",
    "Target": "SUM149",
    "Units": "%",
    "Assay value": 1.79
  }
]

*Q* Enter reported percent difference in area under dose-response curve observed with SUM149 for O=C(c1cc(Cc2n[nH]c(=O)c3ccccc23)ccc1F)N1CCN(C(=O)C2CC2)CC1
*A* -24.4

*Q* Next: CC(C)(C)C(=O)Nc1ccc2c(c1)C(=O)C(=O)c1ccccc1-2
*A* 2.11

*Q* Same lookup for O=C(Nc1c[nH]nc1-c1nc2ccc(CN3CCOCC3)cc2[nH]1)NC1CC1 , please.
*A* -10.6

====

test system: SUM149; assay: percent difference in area under dose-response curve of relative cell number, RPMI vs HPLM; higher = drug relatively more effective in HPLM than RPMI (negative = less effective in HPLM); details: treatment time: 72 h; dose range: 10-point, 1 nM to 20 µM; media compared: RPMI vs HPLM
Observed property: percent difference in area under dose-response curve (%)
Express your answer in %, writing the number without its unit.

*Q* I am curious: what percent difference in area under dose-response curve value has been reported for CCCCCCCCc1ccc(CCC(N)(CO)CO)cc1 ?
*A* 3.22

*Q* Also NC(=O)CCCSc1nc(N)nc(-c2c(Cl)cc3c4c(cccc24)COC3)n1 , if possible.
*A* -19.2

*Q* Quick one: CCC1=C[C@@H]2CN(C1)Cc1c([nH]c3ccccc13)[C@@](C(=O)OC)(c1cc3c(cc1OC)N(C)[C@H]1[C@@](O)(C(=O)OC)[C@H](OC(C)=O)[C@]4(CC)C=CCN5CC[C@]31[C@@H]54)C2 [Vinorelbine_Tartrate]
*A* -41

*Q* Next compound: CC(C)[C@H](C(=O)Nc1ccc(C(=O)NO)cc1)c1ccccc1
*A* -15.2

*Q* Thanks! And Cc1cccc(Nc2nc(-c3ccncc3)cs2)c1 ?
*A* -3.22

*Q* Cool, now COc1ccccc1-c1cc(Nc2cccc(CS(N)(=O)=O)c2)ncn1
*A* -3.21

*Q* Entry to check: COc1cc2nccc(Oc3ccc(NC(=O)NC4CC4)c(Cl)c3)c2cc1C(N)=O
*A* 5.17

*Q* // repeat for COc1cccc2c1C(=O)c1c(O)c3c(c(O)c1C2=O)C[C@@](O)(C(C)=O)C[C@@H]3O[C@H]1C[C@H](N)[C@H](O)[C@H](C)O1 [Daunorubicin_HCl] and report
*A* -26.8

*Q* Next record, please: O=C(/C=C/c1cccnc1)NCCCCC1CCN(C(=O)c2ccccc2)CC1
*A* -32.8

*Q* Another compound to look at: CC(/C=C/C(=O)NO)=C\[C@@H](C)C(=O)c1ccc(N(C)C)cc1
*A* -9.24

*Q* Likewise for O=C(Nc1cccnc1)N1CCC(Cc2cccc(Oc3ccc(C(F)(F)F)cn3)c2)CC1 ?
*A* -4.77
